Test: MTT cytotoxicity assay, leukemia
Format: cell-based, human
Details: human, K562 cells (leukemia)
QUANTITY: viability at 25 μg/mL
Express the reported value numerically, then name its unit.

CC(C)=CCc1c2c(c3occ(-c4ccc(O)cc4)c(=O)c3c1O)CC(C(C)(C)O)O2 (centres unmarked) ... 11.5%

# input for lookup
Request: Provide viability at 25 μg/mL value for the following compound: COc1cccc2c1C(=O)c1c(O)c3c(c(O)c1C2=O)C[C@@](O)(C(=O)CO)C[C@@H]3O[C@H]1C[C@H](N)[C@H](O)[C@H](C)O1 [doxorubicin, reference compound]
Response: 59.5%

---

Test: MTT cytotoxicity assay, colorectal cancer
Type: cell-based, human
Settings: human, SW480 cells (colorectal cancer)
QUANTITY: viability at 100 μg/mL (%)
Express your answer in %, writing the number without its unit.

Request: Provide viability at 100 μg/mL value for the following compound: C=C(C)C(O)Cc1c(O)c(CC=C(C)C)c2occ(-c3ccc(O)cc3)c(=O)c2c1O (stereo not shown)
Response: 59.5

Request: Provide viability at 100 μg/mL value for the following compound: COc1cccc2c1C(=O)c1c(O)c3c(c(O)c1C2=O)C[C@@](O)(C(=O)CO)C[C@@H]3O[C@H]1C[C@H](N)[C@H](O)[C@H](C)O1 [doxorubicin, reference compound]
Response: 16.8

Request: Provide viability at 100 μg/mL value for the following compound: CC(C)=CCc1c2c(c3occ(-c4ccc(O)cc4)c(=O)c3c1O)CC(C(C)(C)O)O2 (stereo not shown)
Response: 6.09

Request: Provide viability at 100 μg/mL value for the following compound: CC(C)=CCc1c(O)c(CC=C(C)C)c2occ(-c3ccc(O)cc3)c(=O)c2c1O
Response: 77
